Values were extracted from patent US20240197694A1.

What follows is a collection of Kd values obtained with DCAF1 (1058-1396) (Homo sapiens, UniProt Q9Y4B6).
Sequence (Q9Y4B6 1058-1396): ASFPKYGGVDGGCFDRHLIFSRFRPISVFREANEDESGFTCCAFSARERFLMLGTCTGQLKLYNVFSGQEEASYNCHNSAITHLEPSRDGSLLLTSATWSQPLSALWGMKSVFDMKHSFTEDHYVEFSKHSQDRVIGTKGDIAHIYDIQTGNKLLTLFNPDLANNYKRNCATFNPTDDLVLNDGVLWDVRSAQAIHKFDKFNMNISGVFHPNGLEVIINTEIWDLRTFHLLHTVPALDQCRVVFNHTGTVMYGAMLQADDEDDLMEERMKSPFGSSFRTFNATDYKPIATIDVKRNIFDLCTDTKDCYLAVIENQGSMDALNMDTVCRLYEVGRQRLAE

MOLECULE	SYSTEM_NAME	REPORTED_VALUE
COc1nccc(C(=O)N2c3ccc(C)cc3C3CN(C)CCC32)n1 (centres unmarked)	DCAF1 (1058-1396) (Homo sapiens, UniProt Q9Y4B6)	> 100 µM

Could you tell me which Kd is on file for Cc1ccc2c(c1)C1CN(C)CCC1N2C(=O)c1ccnc(OCC(F)F)c1 (centres unmarked) ?
> 100 µM

Could you tell me which Kd is on file for O=C(NCCn1ncc2ccccc2c1=O)C1Cc2ccccc2CN1 (centres unmarked) ?
40 to 70 µM

Could you tell me which Kd is on file for Cc1ccc2c(c1)C1CN(C)CCC1N2C(=O)c1cc2c(s1)CCCC2 (centres unmarked) ?
> 100 µM

Could you tell me which Kd is on file for COc1cc(C)cc(CNCc2cnc[nH]2)c1 ?
> 100 µM

Could you tell me which Kd is on file for Cc1ccc(C(=O)N[C@H](C(=O)N2c3ccc(C)cc3C3CN(C)CCC32)C(C)C)cc1 (some centres unmarked) ?
> 100 µM

Could you tell me which Kd is on file for Clc1cc(CNCc2cnc[nH]2)cc2c1OCO2 ?
> 100 µM

Could you tell me which Kd is on file for Cc1ccc2c(c1)C1CN(C)CCC1N2c1nc(S(=O)(=O)c2ccccc2)c(Cl)s1 (centres unmarked) ?
> 100 µM

Could you tell me which Kd is on file for CN1Cc2cc(NCCCCCCN)ccc2CC1CNc1ncccc1F (centres unmarked) ?
40 to 70 µM

Could you tell me which Kd is on file for Cc1ccc2c(c1)C1CN(C)CCC1N2C(=O)c1cc2c(C)nn(-c3ccc(Cl)cc3)c2s1 (centres unmarked) ?
> 100 µM

Could you tell me which Kd is on file for Cc1ccc2c(c1)C1CN(C)CCC1N2C(=O)C[C@@H](n1cccn1)C(F)(F)F (some centres unmarked) ?
> 100 µM

Could you tell me which Kd is on file for Cc1ccc2c(c1)C1CN(C)CCC1N2C(=O)/C=C/c1nccs1 (centres unmarked) ?
> 100 µM

Could you tell me which Kd is on file for Cc1ccc2c(c1)[C@H]1CN(C)CC[C@H]1N2C (racemic) ?
> 100 µM

Could you tell me which Kd is on file for NCCCCCCn1cccc1CNCc1ccncc1 ?
40 to 70 µM

Could you tell me which Kd is on file for Cc1ccc2c(c1)C1CN(C)CCC1N2C(=O)/C(=C/c1ccc(Cl)cc1)c1ccc(F)cc1 (centres unmarked) ?
40 to 70 µM

Could you tell me which Kd is on file for OCCCNCc1cccn1-c1ccccc1 ?
> 100 µM

Could you tell me which Kd is on file for O=C(CCN1CCc2[nH]c3ccccc3c2C1)N1CCOCC1 ?
≤ 40 µM

Could you tell me which Kd is on file for COc1cc(C(=O)N2c3ccc(C)cc3C3CN(C)CCC32)ncn1 (centres unmarked) ?
> 100 µM

Could you tell me which Kd is on file for CN1Cc2ccccc2CC1CNC(=O)c1nc(=N)[nH]c2c1CCCC2 (centres unmarked) ?
40 to 70 µM

Could you tell me which Kd is on file for Cc1cccc2c1[C@@H]1CN(C)CC[C@H]1N2 (racemic) ?
> 100 µM
